assay.method.text: Puerarin bidirectional transport across Calu-3 cell monolayers
Assay type: in vitro ADME, human
recorded.conditions: human, Papp (B→A), puerarin 60 μg/mL + paeoniflorin 48 μg/mL + menthol 60 μg/mL
value.kind: Papp B→A at 180 min, 60 μg/mL (×10⁻⁶ cm/s)
Answers are plain numbers, in ×10⁻⁶ cm/s.

Incoming: Record request: Papp B→A at 180 min, 60 μg/mL value, item O=c1c(-c2ccc(O)cc2)coc2c([C@@H]3O[C@H](CO)[C@@H](O)[C@H](O)[C@H]3O)c(O)ccc12 [puerarin]
Outgoing: 2.14

###

assay.method.text: Puerarin bidirectional transport across Calu-3 cell monolayers
Format: in vitro ADME, human
recorded.conditions: human, Papp (B→A), puerarin 60 μg/mL + paeoniflorin 12 μg/mL
value.kind: Papp B→A at 180 min, 60 μg/mL (×10⁻⁶ cm/s)
Numbers only, in ×10⁻⁶ cm/s.

Incoming: Record request: Papp B→A at 180 min, 60 μg/mL value, item `O=c1c(-c2ccc(O)cc2)coc2c([C@@H]3O[C@H](CO)[C@@H](O)[C@H](O)[C@H]3O)c(O)ccc12`
Outgoing: 1.24
